target: Sialic acid-binding Ig-like lectin 9 (Homo sapiens); assay: Hs-Siglec9 ALPHAscreen SOP 20170721; parameters: scale not given: direction of the effect not stated beside the values; conditions: 10 µM
This section presents compounds with their documented Percent Effect values.
PROPERTY_LABEL: Percent Effect (%)

- COMPOUND: "CN(C)S(=O)(=O)c1ccc(CN2CCCC2c2ccccc2)o1 (stereo unspecified)"
  PROPERTY_LABEL: "Percent Effect"
  RESULT: -3.79
- COMPOUND: "Cc1nc(CN2CCC3(CCCN(Cc4cnn(C)c4)C3)C2=O)cs1 (stereo unspecified)"
  PROPERTY_LABEL: "Percent Effect"
  RESULT: 4.34
- COMPOUND: "O=C(NC1(c2cccc(F)c2)CCOCC1)c1ccccn1"
  PROPERTY_LABEL: "Percent Effect"
  RESULT: 0.357
- COMPOUND: "Cc1cc(C)n(CC2CCCN2C(=O)CCCNc2ncccn2)n1 (stereo unspecified)"
  PROPERTY_LABEL: "Percent Effect"
  RESULT: 7.88
- COMPOUND: "CN(C)C(=O)[C@H]1C[C@@H]2CN(S(=O)(=O)Cc3ccccc3)C[C@H]1O2"
  PROPERTY_LABEL: "Percent Effect"
  RESULT: -3.98
- COMPOUND: "Cn1cc(CN2CC3(CCN(C(=O)c4cscn4)C3)C2)cn1"
  PROPERTY_LABEL: "Percent Effect"
  RESULT: 10.7
- COMPOUND: "N#Cc1c(F)cccc1N1CCC(NS(=O)(=O)c2cccs2)CC1"
  PROPERTY_LABEL: "Percent Effect"
  RESULT: -2.85
- COMPOUND: "COCCN(C)CCN1CC2(CCN(C(=O)C3CCOC3)CC2)OC1=O (stereo unspecified)"
  PROPERTY_LABEL: "Percent Effect"
  RESULT: 7.65
- COMPOUND: "Cc1oc(C(=O)O)cc1S(=O)(=O)Nc1cc(Cl)ccc1F"
  PROPERTY_LABEL: "Percent Effect"
  RESULT: 6.3
- COMPOUND: "CCc1nc(CN(C)C2CCN(Cc3cnc(C)cn3)C2)no1 (stereo unspecified)"
  PROPERTY_LABEL: "Percent Effect"
  RESULT: -16.7
- COMPOUND: "CCOCCn1nnc(C2(NC(=O)c3ccccc3)CCCC2)n1"
  PROPERTY_LABEL: "Percent Effect"
  RESULT: 0.531
- COMPOUND: "CNC(=O)NC(=O)CN1CCC(c2c[nH]c3ccc(OC)cc23)CC1"
  PROPERTY_LABEL: "Percent Effect"
  RESULT: 22.2
- COMPOUND: "Cc1nonc1CN(C)CC1(O)CCCN(CCC2CCCCC2)C1=O (stereo unspecified)"
  PROPERTY_LABEL: "Percent Effect"
  RESULT: -0.787
- COMPOUND: "Cc1ccc(NC(=O)N2CCOC(C)C2)cc1Cl (stereo unspecified)"
  PROPERTY_LABEL: "Percent Effect"
  RESULT: 4.84
- COMPOUND: "Cc1cc(C)n(C2CCCN(C(=O)c3ccc(NC4CC4)nc3)C2)n1 (stereo unspecified)"
  PROPERTY_LABEL: "Percent Effect"
  RESULT: 2.52
- COMPOUND: "Cc1cnn(CC2CCCN2Cc2cc(=O)n3cccc(C)c3n2)c1 (stereo unspecified)"
  PROPERTY_LABEL: "Percent Effect"
  RESULT: 28.3
- COMPOUND: "COc1cccc2cc(CNC(=O)N3CCCC(O)C3)oc12 (stereo unspecified)"
  PROPERTY_LABEL: "Percent Effect"
  RESULT: 1.57
- COMPOUND: "CCS(=O)(=O)c1ccccc1C(=O)NCc1ccnc(N(C)C)c1"
  PROPERTY_LABEL: "Percent Effect"
  RESULT: 2.33
- COMPOUND: "CCN1CCn2c(C)cnc2C12CCN(C(=O)c1ccc(Cl)cc1)CC2"
  PROPERTY_LABEL: "Percent Effect"
  RESULT: -7.09
- COMPOUND: "CNc1nc(CNC(=O)Nc2cccc(-c3nnco3)c2)cs1"
  PROPERTY_LABEL: "Percent Effect"
  RESULT: -1.65
- COMPOUND: "CN(C)[C@@H]1CCN(C(=O)c2ccsc2)[C@H]1Cc1cnn(C)c1"
  PROPERTY_LABEL: "Percent Effect"
  RESULT: 1.61
- COMPOUND: "O=C([C@H]1C[C@@H]2CCN(C3CCOCC3)C[C@@H]2O1)N1CCOCC1"
  PROPERTY_LABEL: "Percent Effect"
  RESULT: 14.3
- COMPOUND: "O=C(c1ccccc1N1CCOCC1)N1CCCC(n2cccn2)C1 (stereo unspecified)"
  PROPERTY_LABEL: "Percent Effect"
  RESULT: 3.15
- COMPOUND: "N#Cc1cccc(S(=O)(=O)N2CCCCC2CCN2CCCC2=O)c1 (stereo unspecified)"
  PROPERTY_LABEL: "Percent Effect"
  RESULT: 9.03
- COMPOUND: "CC(C)c1cc(NCC(O)CO)n2nccc2n1 (stereo unspecified)"
  PROPERTY_LABEL: "Percent Effect"
  RESULT: 25.3
- COMPOUND: "CCC1=N[C@@]2(CC[C@@H]3CN(S(=O)(=O)N(C)C)C[C@@H]32)C(=O)N1CC(C)C"
  PROPERTY_LABEL: "Percent Effect"
  RESULT: 6.82
- COMPOUND: "CC(C)[C@H](NC(=O)NC1CCS(=O)(=O)C1)C(=O)Nc1cccnc1 (stereo partly specified)"
  PROPERTY_LABEL: "Percent Effect"
  RESULT: -4.96
- COMPOUND: "CN(C)C(=O)[C@@H]1CCO[C@@H]2CCN(CCc3ccccc3)C[C@@H]21"
  PROPERTY_LABEL: "Percent Effect"
  RESULT: 0.659
- COMPOUND: "Cc1ccc2oc(CNC(C)c3nnc4n3CCCC4)cc2c1 (stereo unspecified)"
  PROPERTY_LABEL: "Percent Effect"
  RESULT: -1.29
- COMPOUND: "CN(Cc1ccco1)Cc1ccccc1CNC(=O)c1cc[nH]n1"
  PROPERTY_LABEL: "Percent Effect"
  RESULT: 5.67
- COMPOUND: "Cc1cnn(CCNCC(=O)NCc2ccccc2)c1"
  PROPERTY_LABEL: "Percent Effect"
  RESULT: 11.4
- COMPOUND: "Cc1ccc(CNC(=O)Cn2ncc3c2c(C)nn3C)cc1"
  PROPERTY_LABEL: "Percent Effect"
  RESULT: 1.31
- COMPOUND: "Cc1nnc(NCC2(c3ccccc3)CC2)c(C#N)c1C"
  PROPERTY_LABEL: "Percent Effect"
  RESULT: 5.06
- COMPOUND: "CN(Cc1ccccn1)C1CC2(CCN(Cc3cccnc3)CC2)C1"
  PROPERTY_LABEL: "Percent Effect"
  RESULT: -6.34
- COMPOUND: "Cn1nc2c(cc1=O)CN(Cc1coc(-c3cccs3)n1)CC2"
  PROPERTY_LABEL: "Percent Effect"
  RESULT: 5.69
- COMPOUND: "CN(C)C(=O)c1ccc2c(c1)N(C)C(CC(=O)NCCC(C)(C)C)CO2 (stereo unspecified)"
  PROPERTY_LABEL: "Percent Effect"
  RESULT: 13.4
- COMPOUND: "O=C1CC(c2ccccc2)c2snc(C(=O)O)c2N1 (stereo unspecified)"
  PROPERTY_LABEL: "Percent Effect"
  RESULT: -2.64
- COMPOUND: "CN1CCc2nc(C3CCN(C(=O)CCC4CCCC4)CC3)ncc2C1"
  PROPERTY_LABEL: "Percent Effect"
  RESULT: -1.28
- COMPOUND: "CCO[C@@H]1CO[C@@]2(CCCN(C(=O)COc3ccccc3OC)C2)C1"
  PROPERTY_LABEL: "Percent Effect"
  RESULT: -2.8
- COMPOUND: "Cc1cc(C(=O)N2C[C@@H](C(=O)O)[C@H](c3ccccc3C)C2)c(C)o1"
  PROPERTY_LABEL: "Percent Effect"
  RESULT: -6.42
- COMPOUND: "CCc1ccccc1NC(=O)N1CCn2cnc(COC)c2C1"
  PROPERTY_LABEL: "Percent Effect"
  RESULT: 17.5
- COMPOUND: "Cc1cc(N2CCCN(C(=O)Cc3csc(C)n3)CC2)ccn1"
  PROPERTY_LABEL: "Percent Effect"
  RESULT: -1.96
- COMPOUND: "O=C(NCCN1CCCCC1)c1nc(-c2ccc3cc[nH]c3c2)no1"
  PROPERTY_LABEL: "Percent Effect"
  RESULT: 3.61
- COMPOUND: "CCc1nccn1C1CCCN(C(=O)c2cnc3ccccc3n2)C1 (stereo unspecified)"
  PROPERTY_LABEL: "Percent Effect"
  RESULT: 1.65
- COMPOUND: "CN(Cc1cccs1)C(=O)CS(=O)(=O)Cc1ccc(Cl)c(Cl)c1"
  PROPERTY_LABEL: "Percent Effect"
  RESULT: -21.6
- COMPOUND: "COc1ccc(CC(=O)N2CCCC2Cn2cccn2)cc1F (stereo unspecified)"
  PROPERTY_LABEL: "Percent Effect"
  RESULT: 6.06
